quantityKind: melting point

CC(=O)OC1CSC(Oc2ccc(-c3cccnc3F)nc2Cl)C(OC(C)=O)C1OC(C)=O (stereo not given) :: 227 °C
CCCNC(=O)c1ccccc1 :: 87.6 to 88.9 °C
C(=C\c1nc2ccccc2s1)/c1cccc(NCCCc2nnn[nH]2)c1 :: 168 to 169 °C
Cc1cc(Oc2nn(C)c(C(F)(F)F)c2Cl)ccc1[N+](=O)[O-] :: 72 to 73.5 °C
CC(C)N1C(=O)c2ccccc2N(C(=O)CCl)S1(=O)=O :: 133 to 135 °C
CCOC(=O)C(C(=O)OC(c1ccccc1)c1ccccc1)C(=O)c1cc(F)c(OC)nc1Nc1ccc(F)cc1F (stereo not given) :: 130 to 131 °C
C#CCOCC(=O)Nc1ccccc1 :: 142 to 145 °C
COC(=O)c1ccc(CNC(=O)c2ccc(C(=O)NO)s2)cc1 :: 156 to 166 °C
CCCC(=O)c1c[nH]c2c(OC)csc2c1=O :: 222 to 225 °C
Cc1cccc(N2CC(=O)NC(=O)N2)c1 :: 245 to 247 °C
Nc1nonc1-c1nc2ccccc2n1CC(=NO)c1ccc(Br)cc1 :: 198 to 201 °C
[N-]=[N+]=NCC(COC(C(F)(F)F)(C(F)(F)F)C(F)(F)F)(COC(C(F)(F)F)(C(F)(F)F)C(F)(F)F)C(=O)O :: 97 to 98 °C
COC(=O)NCc1c[nH]c(=S)n1[C@H]1CCc2c(F)cc(F)cc2C1 :: 220 to 222 °C
C#CCOC(=O)c1ncn2c1[C@@H]1CCCN1C(=O)c1c(Cl)cccc1-2 :: 213 to 214 °C
O=[N+]([O-])c1ccc(Nc2cccc(O)c2)cc1 :: 158 to 160 °C
COC(=O)c1nc2c(c(-c3ccccc3)nn2-c2ccccc2)c(N)c1C(=S)OC :: 160 to 161 °C
O=C(O)C(=O)c1ccc(S(=O)(=O)CCOc2ccc3ccccc3c2)cc1 :: 135 to 136 °C
OCc1cccc(C(O)c2cc(C(F)(F)F)nc3c(C(F)(F)F)cccc23)c1 (stereo not given) :: 152 to 154 °C
O=C1N(CO)CCN1C(c1ccccc1)c1ccccc1 :: 134 °C
O=C(O)C1=Cc2cc(Cl)ccc2N(Cc2ccc([N+](=O)[O-])cc2)C1C(F)(F)F (stereo not given) :: 225 to 228 °C

----------
Measured melting point values are reported for all entries that follow.
quantityKind: melting point

Cc1[nH]c2ccc(S(=O)(=O)c3ccccc3)cc2c1CCNC(=O)OC(C)(C)C :: 210 to 213 °C
CC(C)C(NC(=O)c1ccc(C(=O)NCC(=O)O)cc1)C(=O)N(CC(=O)NC(C(=O)C(F)(F)F)C(C)C)C1Cc2ccccc2C1 (mixture of isomers) :: 88 to 91 °C
Cc1cc(CC(=O)O)n(C)c1C(=O)c1ccc2n1CCC2 :: 132 to 134 °C
Nc1nccc2cc(O)ccc12 :: 258 to 260 °C
COc1ccc(CCC(C)=O)cc1S(N)(=O)=O :: 176 to 179 °C
CN(Cc1ccccc1)c1cc(Oc2cccc(C(F)(F)F)c2)nc(C(=O)Nc2ccccc2)c1 :: 111 to 114 °C
Cc1ccc(-c2ccccc2-c2nnn[nH]2)cc1 :: 148 to 150 °C
CN1C(c2ccc(F)cc2)=NC(C(F)(F)F)(C(F)(F)F)C1CC(=O)c1ccc(F)cc1 (centres undefined) :: 145 to 147 °C
CCN(CC)CCOc1ccc(Nc2ncc3c(n2)N(C)C(=O)N(c2cccc(Br)c2)C3)cc1 :: 150 °C

----------
quantityKind: melting point

CCc1nc2c(N)nc3ccccc3c2n1CCOCCNC(=O)c1ccccc1 :: 188 to 191 °C
CC(C)(CNc1ccnc2cc(Cl)ccc12)NCc1cc(C(F)(F)F)cc(C(F)(F)F)c1 :: 140 to 141 °C
CC=C1CC2C3CCc4cc(OC)ccc4C3CCC2(CC)C1=O (configuration not stated) :: 155 to 157 °C
O=C(O)CCCCN1C(=O)c2ccc(C(=O)O)cc2C1=O :: 223 °C
COc1ccc(Cl)cc1C(=O)NCCc1ccc(-c2ccco2)c(S(N)(=O)=O)c1 :: 195 °C
CCC(O)CN1CCC2(CC1)CSC1=C(O2)c2ccccc2C(=O)C1=O (configuration not stated) :: 180 to 182 °C
O=C(O)c1cc2c(-c3ccccc3)n[nH]c2s1 :: > 260 °C
O=c1c2cc(F)c(N3CCCC3)cc2n(-c2ccc(F)cc2F)c(=O)n1O :: 232 to 234 °C
NCCCCCCCCCCCCCCCCCCCCCC(=O)O :: 166 to 168 °C
CCC(CC)Nc1cc(C)nc2c1ncn2-c1c(C)cc(C)cc1C :: 78 to 80 °C
CNC1=NN(c2ccc(Cl)c(Cl)c2)CC1 :: 68 to 70 °C
Clc1ccc(C=Cc2ncon2)cc1 :: 134 °C
COc1ncccc1-c1ccc(OC2SCC(O)C(O)C2O)c(Cl)n1 (configuration not stated) :: 102 °C
Cc1cccc2c1SC1(CC1)C2=O :: 74 to 75 °C
CO/N=C(\C(=O)OC)c1nsc(NC(=O)OC)n1 :: 158 to 161 °C
CCC(=O)Oc1ccc2c(c1)CCC1C2CCC2(C)C(=O)CCC12 (configuration not stated) :: 134 to 136 °C
O=C(O)c1cccc2cc3ccc(Cl)cc3c(C(=O)O)c12 :: 325 to 327 °C
COC1(C(O)CN2CCC(n3c(=O)[nH]c4ccccc43)CC2)COc2ccccc2O1 (configuration not stated) :: 143 to 144 °C
Cc1cc(NC(=S)NC(=O)c2ccccc2Cl)ccc1-n1cccc1 :: 134 to 136 °C
CCCCCCCCCCCCCCCCOCC(O)CN1CCC(C)CC1 (configuration not stated) :: 84 to 85 °C
NCCCOc1ccc(OCCCN)cc1 :: 73 to 74 °C
CC(C)CCC(=O)Nc1c(C(O)(C(F)(F)F)C(F)(F)F)ccc2ccccc12 :: 62 to 63 °C

----------
The reader will find reported melting point values listed item by item below.
quantityKind: melting point

c1ccc2c(c1)Nc1cc(-c3csc(CN4CCCCC4)n3)ccc1S2 :: 186 to 188 °C
O=C(O)c1nc2cc(N3CCN(Cc4ccccc4)CC3)c([N+](=O)[O-])cc2[nH]c1=O :: 278 to 280 °C
COC(=O)c1cc(O)c2c(ccc3sc4ccc(F)cc4c32)n1 :: 269 to 271 °C
COC(=O)CC1Sc2ccc(N)cc2CN(CCc2ccccc2)C1=O (stereo not given) :: 126 to 129 °C
CCNc1nc(SC)ncc1C=Nc1cc(OC)cc(OC)c1 :: 100 to 105 °C
O=S(c1[nH]c(-c2ccc(Cl)cc2)c(Br)c1Br)C(F)(F)F (stereo not given) :: 173 to 176 °C
O=C(O)c1ccc2c(c1)nc(-c1ccc(Oc3cccc(Br)c3)cc1)n2C1CCCCC1 :: 255 to 256 °C
COC(=O)CS(=O)(=O)N1CC=C(c2ccc(-c3ccccc3)cc2)CC1 :: 182 to 183 °C
CCCCOC(=O)c1cnc(C(=O)O)c(OC)c1 :: 96 to 98 °C
Cc1ccc(-c2cc(C(F)(F)F)nn2-c2ccc(S(=O)(=O)NO)cc2)cc1 :: 203 °C
O=C(NC1CC1)c1[nH]c2ccc(Cl)cc2c1S(=O)(=O)c1ccccc1 :: 242 to 243 °C
Nc1nc(N)c2ncn(OCCCCP(=O)(O)O)c2n1 :: 295 to 297 °C
Fc1ccc(C(F)(F)C(F)(F)c2ccccc2)c(Br)c1 :: 47 to 48 °C
NS(=O)(=O)c1cncc(-c2cn(-c3cc(C(F)(F)F)cc(-c4ccc(C(F)(F)F)cc4)n3)cn2)c1 :: > 250 °C
COC(=O)[C@H](Cc1ccc(OS(=O)(=O)C(F)(F)F)c(C2SCCS2)c1)NC(C)=O :: 116 to 118 °C
COC(=O)C1Cc2c([nH]c3ccccc23)C(c2cccc(OC)c2)N1 (stereo not given) :: 146 °C
CCCCCCCCCCCCCOCCCCO :: 26 to 29 °C
CCCC(=Cc1ccccc1)CN1CCc2nc(N)sc2CC1 :: 77 to 80 °C
CC(=O)Nc1ncc(Sc2nnc(C)s2)s1 :: 242 to 244 °C
C[C@]1(COc2ccc(N3CCS(=O)CC3)cc2)Cn2cc([N+](=O)[O-])nc2O1 :: 198 to 200 °C
Cc1cc(C)c(CP(Cc2c(C)cc(C)cc2C)Cc2c(C)cc(C)cc2C)c(C)c1 :: 148 to 158 °C
O=C(N[C@H](Cc1cccc(OC(F)(F)C(F)F)c1)[C@@H](O)c1ccc(CN2CCCCC2)cc1)c1cccc2c1C=CCCC2 (racemic) :: 104 to 106 °C
CC(=Cc1ccc([N+](=O)[O-])cc1)C(=O)Oc1ccc(Cl)cc1 :: 111 to 112 °C
O=C(NCc1ccc(F)cc1)c1ccc2nc(N[C@@H]3CCc4ccccc43)ccc2c1 :: 175 °C
COc1ccc(C#CCO)c2c1c(CCN(C)C)cn2C :: 101 to 104 °C
NC1=NS(=O)N=C1NCCCN(Cc1ccccc1F)c1ccccn1 (stereo not given) :: 180 to 182 °C
CCOC(=O)c1cc(-c2ccc(OCc3cccnc3)cc2O[C@H](CCC(=O)O)c2ccccc2C)n[nH]1 :: 108 to 110 °C
CCOCCOc1ccc(C(=O)CN(Cc2ccccc2)Cc2ccccc2)cc1C(=O)OC :: 57 °C
CCCCCCCCOc1ccc(C(=O)Oc2ccc(C(=O)O)c(F)c2)cc1 :: 147 to 148 °C
COc1ccc(C(=O)C2CCN(C(C)=O)CC2)cc1 :: 102 to 105 °C
O=C1Cc2c([nH]c3ccc(Br)cc23)-c2ccccc2N1 :: > 300 °C
CC(C)(C)OC(=O)N1CCNC(C(=O)O)C1 (stereo not given) :: 226 to 229 °C
Cc1ccccc1N1CCc2c(C)nc3ccccc3c21 :: 148 to 150 °C
Nc1nc2c(ncn2COCC(COC(=O)COc2ccccc2)OC(=O)COc2ccccc2)c(=O)[nH]1 (stereo not given) :: 95 to 100 °C
CC(C)c1cc(CCCOc2ncccc2CC(=O)O)n(Cc2ccc(C(F)(F)F)cc2Cl)n1 :: 114 to 115 °C
O=c1c2c(N3CCNCC3)cc(Cl)cc2n(Cc2ccccc2)c(=O)n1Cc1ccccc1 :: 115 to 123 °C
COc1ccc(/C=C/S(=O)(=O)Nc2ccc(S(N)(=O)=O)cc2)cc1 :: 181 to 183 °C
CCCCCCCCCCCCCCOc1cc(C(=O)OC)ccc1OC :: 77 to 79 °C
Cc1cncc(CC(=O)c2ccccc2)c1 :: 53 to 54 °C
Cc1cc(-c2cccc([N+](=O)[O-])c2)c2ccccc2n1 :: 157 °C
